Assay: Confirmation screen for delayed death inhibitors of the malarial parasite plastid, 96 hour incubation; note: nearly all actives have a fitted effect of over 60% in size
Conditions: P. falciparum luciferase growth in erythrocytes; series mostly up to 28.7 µM
Text: The goal of this screen is to discover new antimalarial compounds that act by inhibiting the development of the apicoplast in the malarial parasite Plasmodium falciparum. The biochemical processes that make this organelle essential for erythrocytic stage parasites are not well understood. […] Growth inhibition is detected by a decrease in luciferase activity. […]
Out of some 2,300 compounds screened, about 1,400 (61%) were called active. About 29% were inconclusive and are not listed. Calls come from the whole dose curve; as a rule, active = well fitted inhibition curve with a large enough effect; inconclusive = small, poorly fitted or top-dose-only effect, or effect the other way; inactive = no such curve, though single readings can be large or run the other way. So high a share suggests a set chosen from earlier hits. This is one part of the list.
Permitted responses: 1 for active, -1 for inactive

Task: For this compound, state the assay outcome: `CCC(=O)c1ccc(N2CCN(C(=O)c3cc([N+](=O)[O-])ccc3N3CCN(C)CC3)CC2)c(F)c1`
Output: 1

Task: Another: `N#CC(C#N)=C1C=CC=CN1/C(=C\c1ccco1)C(=O)c1ccc(Cl)cc1`
Output: 1

Task: One more compound: CC(=O)Nc1sc(C)c(C)c1C(=O)OCC(=O)N(CC(C)C)C1CCS(=O)(=O)C1 (stereo not given)
Output: 1

Task: Now the compound `COc1cc(C(=O)/C=C/c2cccnc2)ccc1O`
Output: 1

Task: Lookup `CCc1nnc(NC(=O)CSc2ncnc3c2cnn3-c2ccc(OC)cc2)s1`
Output: 1

Task: Next compound up: `Cn1c(=O)n(C)c2cc(NC(=O)CCl)ccc21`
Output: 1

Task: What about this compound? `CCc1nnc(NC(=O)CSc2nc3cccnc3n2C2CCCCC2)s1`
Output: -1

Task: Would you mind doing `O=[N+]([O-])/C=C\c1ccc(N2CCCC2)c(F)c1` as well?
Output: -1

Task: Another compound to look at: `CN(C(=O)c1cc([N+](=O)[O-])ccc1NCc1cccnc1)c1ccccc1`
Output: 1

Task: Another compound to check: `C/C(CC(=O)NC1CCCCC1)=N\NC(=O)COc1ccc(C)cc1Br`
Output: 1

Task: Here is the next compound: `COC(=O)c1ccc(NC(=O)c2cccc(NC(=O)c3ccccc3)c2)cc1`
Output: 1

Task: Here is the next compound: `CC(C)N(c1ccccc1)c1ccc(NC(=O)CCl)cc1`
Output: 1

Task: Proceed to `COc1ccc(NC(=O)c2cccc(NC(=O)c3ccccc3)c2)c(OC)c1`
Output: 1

Task: Next record, please: `Cc1ccc(OCC(=O)Nn2cnnc2)c(Br)c1`
Output: -1

Task: Same for O=C(NC1CCCN(Cc2ccc(Cl)cc2)C1)c1cnc2ccccn2c1=O (stereo not given)
Output: 1

Task: Also `CC(C)NC(=S)N/N=C/c1sc(N2CCCCC2)nc1-c1cccs1` , if possible.
Output: 1

Task: Moving on to the next compound: `O=C(OC[C@@H]1O[C@@](O)(COC(=O)c2cccnc2)[C@H](OC(=O)c2cccnc2)[C@H]1OC(=O)c1cccnc1)c1cccnc1`
Output: 1

Task: Input COc1cccc(F)c1C(C[N+](=O)[O-])c1c(N)n(C)c(=O)n(C)c1=O (stereo not given)
Output: 1

Task: Could you do the same for `COc1cc(C(=O)Nc2ccc(S(=O)(=O)Nc3cc(C)on3)cc2)cc(OC)c1OC` , please?
Output: -1

Task: Repeat with `O=C(CCl)Nc1ccc2c(c1)OCO2`
Output: 1
